src = ChEMBL document CHEMBL4837201

System: Enterococcus faecalis
Assay: Antibacterial activity against Enterococcus faecalis ATCC 29212 assessed as inhibition of bacterial growth incubated for 16 to 24 hrs by broth microdilution method
Format: functional
Conditions: time 16-24 hrs
Readout: MBC (µM)
Numbers only, in µM.

Sample records with MBC:
Molecule | Tgt | MBC (µM)
Cc1ccc(C(c2cc([N+](=O)[O-])ccc2O)N2CCc3cc(Cl)ccc32)cc1 (centres undefined) | Enterococcus faecalis | 9.19
Cc1ccc(C(c2cc([N+](=O)[O-])ccc2O)N2CCc3cc(Br)ccc32)cc1 (centres undefined) | Enterococcus faecalis | 81.1
Cc1ccc(C(c2cc([N+](=O)[O-])ccc2O)N2CCc3ccccc32)cc1 (centres undefined) | Enterococcus faecalis | 86.7
Cc1ccc(C(c2cc([N+](=O)[O-])ccc2O)N2CCc3cc([N+](=O)[O-])ccc32)cc1 (centres undefined) | Enterococcus faecalis | 9.64
COc1ccc2c(c1)CCN2C(c1ccc(C)cc1)c1cc([N+](=O)[O-])ccc1O (centres undefined) | Enterococcus faecalis | 160
Cc1ccccc1C(c1cc([N+](=O)[O-])ccc1O)N1CCc2cc(Cl)ccc21 (centres undefined) | Enterococcus faecalis | 9.89

The following molecules each have a reported value; give each one's MBC.
1. Cc1ccccc1C(c1cc([N+](=O)[O-])ccc1O)N1CCc2c(C#N)cccc21 (centres undefined)
2. O=[N+]([O-])c1ccc(O)c(C(c2ccc(C(F)(F)F)cc2)N2CCc3ccccc32)c1 (centres undefined)

OUTPUT:
[81.1, 9.43]
